Particulars: buffer; pH 7.4; 200.0 µM
# solubility kinetic annotations
Quantity: solubility kinetic

- CCOc1ccc(N2CC(C(=O)Nc3ccc4c(c3)OCCO4)CC2=O)cc1 (centres undefined): > 57.4 µg/mL
- CCOc1ccc(NC(C)=O)cc1[N+](=O)[O-]: > 33.6 µg/mL
- CCCc1cc(=O)[nH]c(SCC(=O)NCCN2C(=O)CSC2=O)n1: > 55.6 µg/mL
- O=C(c1ccc(F)cc1)C1CCN(C(=O)c2c(F)cccc2F)CC1: > 52.1 µg/mL
- CC1CC(NC(=O)/C(C#N)=C/c2ccc[nH]2)CC(C)(C)C1 (centres undefined): < 0.2 µg/mL
- CCOC(=O)Cn1c(=O)c(C#N)cn(C(C)C)c1=O: > 39.8 µg/mL
- O=C(O)c1nn2cc(CCO)cnc2c1Cl: > 36.2 µg/mL
- Cc1nccn1CC(O)COc1ccc(Cl)cc1Cl (centres undefined): > 45.2 µg/mL
- CCOc1ccc(CN(C)C(=O)CNC(=O)c2ccccc2)cc1: > 49 µg/mL
- CCCOC(=O)Nc1ccc(S(=O)(=O)Nc2ncccn2)cc1: > 50.5 µg/mL
- CC(=O)Nc1ccc(NC(=O)COC(=O)c2cnccn2)cc1: > 47.1 µg/mL
- Cc1cnc(NC(=O)C2CCC(C(C)(C)C)CC2)s1 (centres undefined): < 0.3 µg/mL
- Brc1cccc(C2Nc3cccc4cccc(c34)N2)c1: < 0.3 µg/mL
- Cc1noc(C)c1CN1C(=O)c2cccc([N+](=O)[O-])c2C1=O: > 45.2 µg/mL
- COc1ccc(C(=O)C23CN4CN(CN(C4)C2)C3)cc1: > 41 µg/mL
- CC1(C)CC2CC(C)(CN2C(=O)COC(=O)c2cccnc2Cl)C1 (centres undefined): > 52.6 µg/mL
- CCOc1ccc(S(=O)(=O)NC2CC2)cc1: > 36.2 µg/mL
- CN(Cc1cccnc1)C(=O)CNC(=O)COc1ccccc1: > 47 µg/mL
- CC1CN(C(=O)c2ccc([N+](=O)[O-])s2)CC(C)O1 (centres undefined): > 40.5 µg/mL
- COC(=O)CCC(=O)N1CCCC(CO)(Cc2ccccc2F)C1 (centres undefined): > 50.6 µg/mL
- CN(C)/C=C/C(=O)c1ccn(S(=O)(=O)c2ccccc2)c1: > 45.7 µg/mL
- CCCCOc1ccc(/C(O)=C(\C#N)c2nc3ccccc3[nH]2)cc1: < 0.2 µg/mL
- O=C(NC(=O)N1CCC2(CC1)OCCO2)c1ccc(Cl)cc1: > 48.7 µg/mL
- Cc1cc(NC(=O)c2c(-c3c(F)cccc3Cl)noc2C)no1: > 50.4 µg/mL
- N#CC1=C(N)N(c2ccc(Cl)c(Cl)c2)C(=O)C1: > 40.2 µg/mL
- Cc1ccc(S(=O)(=O)NCCC2=CCCCC2)cc1C(N)=O: > 48.4 µg/mL
- c1ccc(C(NCCNC(c2ccccc2)c2ccccc2)c2ccccc2)cc1: 1.7 µg/mL
- CCC(=NCc1cccnc1)c1c(O)n(-c2ccccc2)c(=O)[nH]c1=O: 43.5 µg/mL
- COCCn1c(C)cc(C(=O)COC(=O)c2cccnc2SC)c1C: 5.2 µg/mL

Each recorded value in this set is attributed to PubChem BioAssay AID1996.
